Data origin, for the record: paper PMC6212638

Below: a set of entries, each annotated with reported pIC50.
# system.under.test: T1, FKBP51 (human, UniProt Q13451 1-457)
# T1 construct: GST-tag-free protein spotted on nitrocellulose; also called immobilized FKBP51; source: E. coli BL21, purified as GST fusion (GSTrap), GST removed with PreScission protease
# T1 sequence (looked up): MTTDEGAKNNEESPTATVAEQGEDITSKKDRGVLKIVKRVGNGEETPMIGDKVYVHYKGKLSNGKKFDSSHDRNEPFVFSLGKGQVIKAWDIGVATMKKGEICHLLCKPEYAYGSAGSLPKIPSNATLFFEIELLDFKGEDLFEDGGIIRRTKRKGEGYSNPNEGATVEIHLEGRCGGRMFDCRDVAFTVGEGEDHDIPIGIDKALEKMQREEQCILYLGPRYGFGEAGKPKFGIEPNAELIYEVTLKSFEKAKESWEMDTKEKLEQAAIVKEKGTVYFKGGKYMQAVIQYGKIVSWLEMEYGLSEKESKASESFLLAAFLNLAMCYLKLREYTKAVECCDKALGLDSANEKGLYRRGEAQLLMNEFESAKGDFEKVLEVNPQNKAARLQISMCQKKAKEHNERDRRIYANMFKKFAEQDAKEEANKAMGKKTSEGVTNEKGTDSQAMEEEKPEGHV
# protocol.details: far-Western, overlay or dot blot; GST-tag-free FKBP51 or AIP on nitrocellulose, blocked with 3% BSA in TBS-T, probed 1 h with HRP-conjugated peptide, alone or with increasing concentrations of unlabeled peptide; luminescence quantified; IC50 estimated; n = 3
# conditions: both partners purified
Reminder that pIC50 means the negative base-10 logarithm of the concentration expressed in mol/L.

Reference set, count: 5
- binder: "SDDEKMPDLE (the 10 C-terminal residues of p23 / PTGES3; also called p23 C-terminal peptide; source: synthetic peptide (Peptide 2.0, Inc.), > 95% purity) [p23 peptide]"
  pIC50: 3.54
- binder: "EDASRMEEVD (the 10 C-terminal residues of Hsp90β; also called Hsp90 peptide; Hsp90β-derived peptide; source: synthetic peptide (Peptide 2.0, Inc.), > 95% purity) [Hsp90β peptide]"
  pIC50: 4.80
- binder: "AQSLAEDDVE (the 10 C-terminal residues of Tom20; also called Tom20 label-free peptide; unlabeled Tom20 peptide; source: synthetic peptide (Peptide 2.0, Inc.), > 95% purity) [Tom20 peptide]"
  pIC50: 3.74
- binder: "FQNSLLYDLD (the 10 C-terminal residues of DNAAF2; source: synthetic peptide (Peptide 2.0, Inc.), > 95% purity) [DNAAF2 peptide]"
  pIC50: 4.60
- binder: "EKNSVNMDLD (the 10 C-terminal residues of Hsp105; source: synthetic peptide (Peptide 2.0, Inc.), > 95% purity) [Hsp105 peptide]"
  pIC50: 4.40

Find the recorded pIC50 belonging to AEPQSLDGVD (the 10 C-terminal residues of NADSYN1; source: synthetic peptide (Peptide 2.0, Inc.), > 95% purity) [NADSYN1 peptide] and report it.
4.55

Data request, read-out pIC50, for PTYSNMEEVD (source: synthetic peptide (Peptide 2.0, Inc.), > 95% purity) [Usp19 peptide]
4.72
